# test system: Histamine H2 receptor (Homo sapiens, UniProt P25021)
# Sequence (P25021 whole entry, the tested form may be a part): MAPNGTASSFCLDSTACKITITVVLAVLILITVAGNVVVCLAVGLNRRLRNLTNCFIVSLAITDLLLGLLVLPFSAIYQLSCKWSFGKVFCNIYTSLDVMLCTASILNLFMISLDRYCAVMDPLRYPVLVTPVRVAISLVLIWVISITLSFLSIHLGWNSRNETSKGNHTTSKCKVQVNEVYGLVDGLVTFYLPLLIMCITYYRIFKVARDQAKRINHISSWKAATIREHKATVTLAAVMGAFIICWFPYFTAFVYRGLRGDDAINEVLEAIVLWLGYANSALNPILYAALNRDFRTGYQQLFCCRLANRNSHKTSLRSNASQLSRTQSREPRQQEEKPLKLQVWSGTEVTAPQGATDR
# test description: Agonist activity at human recombinant histamine H2 receptor-Gsalphas fusion protein expressed in Sf9 cells assessed as [35S]GTPgammaS binding after 90 mins by liquid scintillation counting
# Assay type: functional
Active and inactive are the calls of the source. No cut-off for these calls is given here.
property measured: pEC50

These recorded examples may help you get a feel for the data.
CN/C(=N/C#N)NCCCCc1cnn[nH]1 = inactive
CN/C(=N\C#N)NCCCCNc1ccccn1 = inactive
CN/C(=N\C#N)NCCCNc1ccccn1 = inactive
CN/C(=N\C#N)NCCCNc1nccc(N)n1 = inactive
CN/C(=N\C#N)NCCCCNc1nc(N)n[nH]1 = inactive

Kindly consider the entry below.
Looking up `CN/C(=N\C#N)NCCNc1nccc(N)n1` , I see its pEC50 listed as inactive

Each recorded value in this set is attributed to ChEMBL document CHEMBL3217456.
